test: qHTS of pediatric cancer cell lines to identify multiple opportunities for drug repurposing: Primary screen for NB1643 cells (AID 1347099); conditions: NB1643 neuroblastoma viability, CellTiter-Glo luminescence, 48 h; series mostly up to 46 µM; note: nearly all actives have a fitted effect of over 50% in size
Results filed as inconclusive are left out. Calls of active or inactive are those of the source. Calls come from the whole dose curve; as a rule, active = well fitted cell-killing curve with a large enough effect; inconclusive = small, poorly fitted or top-dose-only effect; inactive = no such curve, though single readings can be large or run the other way.
Response enum: active, inactive

The examples below pair each entry with its known result.
CN[C@@H](C)[C@H]1[C@H](O)C[C@@]2(C)[C@@H]3CC[C@H]4C(C)(C)[C@@H](NC)CC[C@@]45C[C@@]35CC[C@]12C    inactive
CCC(=O)OCC(=O)[C@@]1(OC(=O)CC)[C@@H](C)C[C@@H]2[C@H]3CCC4=CC(=O)C=C[C@]4(C)[C@@]3(F)[C@@H](O)C[C@@]21C    active

As a next step, examine the molecule that follows.
-- ask Assay result, entry CN1c2ccccc2C(=O)N2CCc3c([nH]c4ccccc34)C21 (stereo not drawn) — outcome?
-- reply active

---

assay: Quantitative High-Throughput drug screen in 47 multiple myeloma cell lines against the NCATS MIPE library collection: KMS34_JCRB cell viability assay (AID 1918985); conditions: KMS34 myeloma viability, CellTiter-Glo ATP luminescence, 48 h; series mostly up to 45.8 µM; note: nearly all actives have a fitted effect of over 40% in size
Inconclusive results are not listed. The source made the active and inactive calls. Calls come from the whole dose curve; as a rule, active = well fitted cell-killing curve with a large enough effect; inconclusive = small, poorly fitted or top-dose-only effect, or effect the other way; inactive = no such curve, though single readings can be large or run the other way.
Response enum: active, inactive

NC(N)=Nc1nc(CSCCC(N)=NS(N)(=O)=O)cs1    inactive
CC1(C)CC(=O)c2c(C(F)(F)F)nn(-c3ccc(C(N)=O)c(NC4CCC(O)CC4)c3)c2C1 (stereo not drawn)    active
C[C@@H]1C[C@H]2[C@@H]3CCC4=CC(=O)C=C[C@]4(C)[C@@]3(F)[C@@H](O)C[C@]2(C)[C@@]1(O)C(=O)CO    inactive

-- ask Assay result, entry COc1ccnc(CS(=O)c2nc3ccc(OC(F)F)cc3[nH]2)c1OC (stereo not drawn) — outcome?
-- reply inactive

-- ask Assay result, entry CC(C)N(CCCNC(=O)Nc1ccc(C(C)(C)C)cc1)C[C@H]1O[C@@H](n2cc(Br)c3c(N)ncnc32)[C@H](O)[C@H]1O — outcome?
-- reply active

-- ask Assay result, entry CC(C)[C@H](O)C(=O)N[C@@H](C)C(=O)N[C@@H]1C(=O)N(C)CCc2ccccc21 — outcome?
-- reply inactive

-- ask Assay result, entry Nc1ccc(-c2ccc3ncc4ccc(=O)n(-c5cccc(C(F)(F)F)c5)c4c3c2)cn1 — outcome?
-- reply active

-- ask Assay result, entry CCC(=O)N1CCN(c2ccc(-n3c(=O)ccc4cnc5ccc(-c6cnc7ccccc7c6)cc5c43)cc2C(F)(F)F)CC1 — outcome?
-- reply active

-- ask Assay result, entry O=C(c1ccc(C=Cc2n[nH]c3ccccc23)cc1)N1CCNCC1 — outcome?
-- reply active

-- ask Assay result, entry COc1cc2nccc(Oc3ccc(NC(=O)Nc4cc(C)on4)c(Cl)c3)c2cc1OC — outcome?
-- reply active

---

tested on: Tov-21-G; assay: Primary qHTS to identify gynecologic anti-cancer compounds using libraries of approved drugs and bioactive compounds (AID 1345084); conditions: Gynecologic cancer cell panel viability, ATPlite luminescence, 48 h; series mostly up to 57.5 µM; note: nearly all actives have a fitted effect of over 55% in size
Results filed as inconclusive are left out. The source made the active and inactive calls. The call rests on the fitted dose curve; in most records, active means well fitted cell-killing curve with a large enough effect; inconclusive means small, poorly fitted or top-dose-only effect, or effect the other way; inactive means flat fitted curve, though single readings scatter.
Response enum: active, inactive

The examples below pair each entry with its known result.
CNC(=O)c1ccc2c(C(=Nc3cccc(CN(C)C)c3)c3ccccc3)c(O)[nH]c2c1    inactive
CNc1nc(Nc2ccc(C(=O)N3CCOCC3)cc2OC)ncc1Cl    inactive
CC[C@H](CC#N)OC(=O)N[C@@H](C)c1cccc(NC(=O)Nc2ccc(-c3cnco3)c(OC)c2)c1    active
CS(=O)(=O)c1ccc(C2=C(c3ccccc3)C(=O)OC2)cc1    inactive
CCN1C[C@H](C)n2c(c(O)c3c(=O)n(Cc4ccc(F)c(Cl)c4)nc(C(=O)NC)c32)C1=O    inactive

-- ask Assay result, entry CCN(CCO)CCCOc1ccc2c(Nc3cc(CC(=O)Nc4cccc(F)c4)[nH]n3)ncnc2c1 — outcome?
-- reply inactive

-- ask Assay result, entry Cc1cc(C(C)Nc2ccccc2)c2nc(N3CCOCC3)cc(=O)n2c1 (stereo unspecified) — outcome?
-- reply inactive

-- ask Assay result, entry CN1c2ccccc2C(=O)N2CCc3c([nH]c4ccccc34)C21 (stereo unspecified) — outcome?
-- reply active
